Test system: Serratia marcescens expressing IMP-1 (CL5741)
Assay type: cell-based
condition-context: IMP-1 strain CL5741, with imipenem 1 μg/ml, 95% inhibition of growth
Recorded Serratia marcescens MITC95 for the following molecules
Your answer is read as µM, so omit the unit and give the number.

molecule: NCC(CN)NS(=O)(=O)c1ccc(-c2cccc(-c3cnc(N)[nH]3)n2)c(-c2nnn[nH]2)c1S(N)(=O)=O [Example 438]
unit-text: µM
Serratia marcescens MITC95: 3.125
--
molecule: NCCNS(=O)(=O)c1ccc(-c2cccc(C(=O)NCC(O)CN)c2)c(-c2nn[nH]n2)c1S(N)(=O)=O (stereo in doubt) [Example 347]
unit-text: µM
Serratia marcescens MITC95: 1.563
--
molecule: Nc1nc2c(-c3ccc(S(=O)(=O)NC[C@H]4CCNC4)c(S(N)(=O)=O)c3-c3nn[nH]n3)cccc2[nH]1 [Example 259]
unit-text: µM
Serratia marcescens MITC95: 0.7813
--
molecule: Nc1ccc(-c2ccc(S(=O)(=O)NC3CNC3)c(S(N)(=O)=O)c2-c2nn[nH]n2)cn1 [Example 493]
unit-text: µM
Serratia marcescens MITC95: 0.3906
--
molecule: NCCNS(=O)(=O)c1ccc(-c2cccc3[nH]c([C@@H]4C[C@@H](O)CN4)nc23)c(-c2nn[nH]n2)c1S(N)(=O)=O [Example 444]
unit-text: µM
Serratia marcescens MITC95: 3.125

Request: Requested field: Serratia marcescens MITC95. Item: NS(=O)(=O)c1c(S(=O)(=O)N[C@@H]2CNC[C@@H]2O)ccc(-c2cccc3[nH]nnc23)c1-c1nn[nH]n1 [Example 412]
Result: 3.125

Request: Which measured Serratia marcescens MITC95 value corresponds to Nc1ccc(-c2ccc(S(=O)(=O)N[C@@H]3CNC[C@@H]3N)c(S(N)(=O)=O)c2-c2nn[nH]n2)cn1 [Example 414] ?
Result: 0.7813

Request: Can you look up the measured Serratia marcescens MITC95 of NC[C@@H](N)CNS(=O)(=O)c1ccc(-c2ccc(N)nc2)c(-c2nn[nH]n2)c1S(N)(=O)=O [Example 416] for me?
Result: 1.563

Request: Field request: Serratia marcescens MITC95 | item: NC[C@H](N)CNS(=O)(=O)c1ccc(-c2ccc(N)nc2)c(-c2nn[nH]n2)c1S(N)(=O)=O [Example 415]
Result: 1.172

Request: Look at this molecule and give its reported Serratia marcescens MITC95. Nc1nc2c(-c3ccc(S(=O)(=O)NC[C@H]4CCCN4)c(S(N)(=O)=O)c3-c3nn[nH]n3)cccc2[nH]1 [Example 261]
Result: 0.7813
